tested on: RH-4 cells (rhabdomyosarcoma); test: Antiproliferative activity, Trypan blue viability; format: cell-based; details: 72 hours, treatments repeated every 24 hours, minimum over the lines
metric: IC50
Just the number plus its unit, please.

Query (molecule): CN(CCN(C)Cc1occc(=O)c1O)Cc1occc(=O)c1O ; field requested: IC50
4.49 µM
